Recorded LDH release cytotoxicity, one value per entry.
# Test system: HepaRG
# ASSAY TEXT: LDH release cytotoxicity, % of total lysis control; higher = more cytotoxic
# STUDY CONDITIONS: 0.3162278 µM; 48 h

{"COMPOUND": "Cn1sc(Cl)cc1=O", "LDH release cytotoxicity, %": -0.511}
{"COMPOUND": "N#Cc1c(Cl)cccc1Cl", "LDH release cytotoxicity, %": -1.05}
{"COMPOUND": "CC1(C)C(=O)N(Cl)C(=O)N1Cl", "LDH release cytotoxicity, %": -0.979}
{"COMPOUND": "c1ccc(C2CO2)cc1 (stereo not given) [Styrene oxide]", "LDH release cytotoxicity, %": -1.2}
{"COMPOUND": "OCc1ccccc1", "LDH release cytotoxicity, %": -1.57}
{"COMPOUND": "CC(=O)c1ccccc1", "LDH release cytotoxicity, %": -2.72}
{"COMPOUND": "CCc1ccc(O)c(C(C)(C)C)c1", "LDH release cytotoxicity, %": -1.36}
{"COMPOUND": "C[Si](Cn1cncn1)(c1ccc(F)cc1)c1ccc(F)cc1", "LDH release cytotoxicity, %": -2.26}
{"COMPOUND": "c1ccc(OP(Oc2ccccc2)Oc2ccccc2)cc1", "LDH release cytotoxicity, %": -1.23}
{"COMPOUND": "COP(=O)(OC)OC(Br)C(Cl)(Cl)Br (stereo not given)", "LDH release cytotoxicity, %": -1.53}

---

Recorded LDH release cytotoxicity, one value per entry.
# Test system: HepaRG
# ASSAY TEXT: LDH release cytotoxicity, % of total lysis control; higher = more cytotoxic
# STUDY CONDITIONS: 0.1 µM; 48 h
Where a name gives a salt, the structure may show the parent alone.

{"MOLECULE": "O=C(O)[C@H](O)[C@@H](O)C(=O)O", "UNIT NAME": "%", "LDH release cytotoxicity": -2.52}
{"MOLECULE": "CCCC(=O)OCC [Ethyl butyrate]", "UNIT NAME": "%", "LDH release cytotoxicity": -1.76}
{"MOLECULE": "O=P1(N(CCCl)CCCl)NCCCO1 (stereo not given) [Cyclophosphamide monohydrate]", "UNIT NAME": "%", "LDH release cytotoxicity": -1.29}
{"MOLECULE": "CC1(C)C(=O)N(Br)C(=O)N1Br", "UNIT NAME": "%", "LDH release cytotoxicity": -0.284}
{"MOLECULE": "OCCCBr", "UNIT NAME": "%", "LDH release cytotoxicity": -0.845}
{"MOLECULE": "CCOP(=S)(OCC)Oc1ccc([N+](=O)[O-])cc1", "UNIT NAME": "%", "LDH release cytotoxicity": -2.78}
{"MOLECULE": "CC(C)(O)c1cnn2c(-c3ccc(F)c(-c4c(F)cccc4C#N)c3)cnc2n1", "UNIT NAME": "%", "LDH release cytotoxicity": -1.19}
{"MOLECULE": "OCc1ccccc1", "UNIT NAME": "%", "LDH release cytotoxicity": -1.47}
{"MOLECULE": "N#Cc1c(Cl)cccc1Cl", "UNIT NAME": "%", "LDH release cytotoxicity": -0.347}
{"MOLECULE": "CC(C)c1cccc(C(C)C)c1NC(=O)NS(=O)(=O)c1cc(C(C)(C)O)co1", "UNIT NAME": "%", "LDH release cytotoxicity": 0.0343}
{"MOLECULE": "CC(C)N(C(=O)COc1nnc(C(F)(F)F)s1)c1ccc(F)cc1", "UNIT NAME": "%", "LDH release cytotoxicity": -2.03}
{"MOLECULE": "COC(=O)c1ccccc1C(=O)OC [Dimethyl phthalate]", "UNIT NAME": "%", "LDH release cytotoxicity": -1.99}
{"MOLECULE": "Cc1ccc(N)cc1O", "UNIT NAME": "%", "LDH release cytotoxicity": -1.2}
{"MOLECULE": "COP(=O)(OC)SCn1c(=O)oc2cc(Cl)cnc21", "UNIT NAME": "%", "LDH release cytotoxicity": -2.24}
{"MOLECULE": "CCCCCCCCCCCCCCO", "UNIT NAME": "%", "LDH release cytotoxicity": -2.17}
{"MOLECULE": "CCCCCCCCCCCCCCCO", "UNIT NAME": "%", "LDH release cytotoxicity": -0.465}
{"MOLECULE": "C=C(C)C(=O)OCCC(F)(F)C(F)(F)C(F)(F)C(F)(F)C(F)(F)C(F)(F)F [6:2 Fluorotelomer methacrylate]", "UNIT NAME": "%", "LDH release cytotoxicity": 0.735}
{"MOLECULE": "CCC(C)OC(=O)N1CCCCC1CCO (stereo not given)", "UNIT NAME": "%", "LDH release cytotoxicity": 4.72}
{"MOLECULE": "CCCCN1C(=O)C(C(O)C2CCCCC2)NC(=O)C12CCN(Cc1ccc(Oc3ccc(C(=O)O)cc3)cc1)CC2 (stereo not given) [Aplaviroc hydrochloride]", "UNIT NAME": "%", "LDH release cytotoxicity": -1.71}
{"MOLECULE": "COC(=O)C(C)Oc1ccc(Oc2ccc(Cl)cc2Cl)cc1 (racemic) [Methyl (RS)-2-[4-(2,4-dichlorophenoxy)phenoxy]propionate]", "UNIT NAME": "%", "LDH release cytotoxicity": -1.59}
